Parameter IC50: see the listing below.
Tested on: L1210
Assay: Cytotoxicity against murine leukemia L1210 cells
Format: functional, cell-based, Mus musculus
Details: Mus musculus, L1210; read-out: IC50

COMPOUND	IC50
C=C1[C@@H](OC(=O)/C=C/c2ccccc2)C[C@H](OC(C)=O)[C@]2(C)[C@@H]1C[C@]1(C(C)(C)O)C[C@H](OC(C)=O)C(C)=C1[C@@H](OC(C)=O)[C@@H]2OC(C)=O	> 10 µg/mL
C=C1[C@@H](OC(=O)CC(c2ccccc2)N(C)C)C[C@H](OC(C)=O)[C@]2(C)[C@@H]1C[C@@H]1C[C@H](OC(C)=O)C(C)=C([C@@H](OC(C)=O)[C@@H]2OC(C)=O)C1(C)C (stereo not given in full)	7.2 µg/mL
C=C1[C@@H](O)C[C@H](OC(C)=O)[C@@]2(C)[C@@H](OC(C)=O)[C@H](OC(C)=O)C3=C(C)C(=O)C[C@@H]([C@@H](OC(C)=O)[C@H]12)C3(C)C	> 10 µg/mL
CC(=O)O[C@@]12CO[C@H]1C[C@H](O)[C@@]1(C)C(=O)[C@H](O)C3=C(C)[C@@H](O)C[C@@](O)([C@@H](OC(=O)c4ccccc4)[C@H]21)C3(C)C	> 10 µg/mL
C=C1[C@@H](O)C[C@H](OC(C)=O)[C@@]2(C)[C@@H](OC(C)=O)[C@H](OC(C)=O)C3=C(C)[C@@H](OC(C)=O)C[C@@H]([C@@H](O)[C@H]12)C3(C)C	10 µg/mL
C=C1[C@@H](OC(C)=O)CC[C@@]2(C)[C@@H](OC(C)=O)[C@H](OC(C)=O)C3=C(C)[C@@H](OC(C)=O)C[C@@H]([C@@H](OC(C)=O)[C@H]12)C3(C)C	> 10 µg/mL
CC(=O)O[C@H]1[C@@H]2[C@H](CO)[C@@H](OC(C)=O)C[C@H](OC(C)=O)[C@@]2(C)[C@@H](OC(C)=O)[C@H](OC(C)=O)C2=C(C)[C@@H](OC(C)=O)C[C@@H]1C2(C)C	10 µg/mL
C=C1[C@@H](OC(=O)/C=C/c2ccccc2)CC[C@@]2(C)[C@@H](OC(C)=O)[C@H](OC(C)=O)C3=C(C)C(=O)C[C@@](O)([C@@H](OC(C)=O)[C@H]12)C3(C)C	4.6 µg/mL
C=C1[C@@H](OC(=O)CC(c2ccccc2)N(C)C)CC[C@]2(C)[C@@H]1C[C@@H]1C[C@H](OC(C)=O)C(C)=C([C@@H](OC(C)=O)[C@@H]2OC(C)=O)C1(C)C (stereo not given in full)	> 10 µg/mL
C=C1[C@@H](OC(=O)CC(c2ccccc2)N(C)C)C[C@H](OC(C)=O)[C@@]2(C)[C@@H](OC(C)=O)[C@H](OC(C)=O)[C@@]3(O)C(C)=C(OC(C)=O)C[C@@H]([C@@H](OC(C)=O)[C@H]12)C3(C)C (stereo not given in full)	2.5 µg/mL
CC(=O)O[C@H]1C[C@@]2(O)[C@H]3OC[C@]4(OC(C)=O)[C@H](O)C[C@H](OC(C)=O)[C@](C)([C@H]34)[C@@H](OC(C)=O)[C@H](OC(C)=O)C(=C1C)C2(C)C	4.5 µg/mL
C=C1[C@@H](O)C[C@H](OC(C)=O)[C@@]2(C)[C@@H](OC(C)=O)[C@H](OC(=O)c3ccccc3)C3=C(C)[C@@H](O)C[C@@]3(C(C)(C)O)[C@@H](OC(C)=O)[C@H]12	> 10 µg/mL
C=C1[C@@H](O)C[C@H](O)[C@@]2(C)[C@@H](OC(C)=O)[C@H](OC(C)=O)C3=C(C)C(=O)C[C@@]3(C(C)(C)O)[C@@H](OC(C)=O)[C@H]12	> 10 µg/mL
C=C1[C@@H](OC(=O)/C=C/c2ccccc2)C[C@H](OC(C)=O)[C@@]2(C)[C@@H](OC(C)=O)[C@H](OC(C)=O)[C@]3(O)[C@@]4(C)CO[C@]3(C)C(=O)C[C@H]4[C@@H](OC(C)=O)[C@H]12	1.3 µg/mL
CCCC(=O)NC(c1ccccc1)[C@@H](O)C(=O)O[C@H]1C[C@@]2(O)[C@@H](OC(=O)c3ccccc3)[C@@H]3[C@]4(OC(C)=O)CO[C@@H]4C[C@H](O)[C@@]3(C)C(=O)[C@H](OC(C)=O)C(=C1C)C2(C)C (stereo not given in full)	0.21 µg/mL
